Tested on: HCT-116 colon
Assay: NCI tumour cell line growth inhibition, 48 h
readout-name: TGI

TGI measured on CCN(Cc1c(F)cccc1F)c1ccc(CO)c(Cl)c1 = 12.8 µM

TGI measured on CCOC(=O)/C(=C/c1ccco1)P(=O)(OCC)OCC = > 100 µM

TGI measured on C=CC(=O)N1CCN(c2ncnc3c(F)c(-c4c(O)cccc4F)c(Cl)cc23)CC1 = 23.1 µM

TGI measured on NS(=O)(=O)c1ccc(NC(=O)c2cccc3c(=O)c4ccccc4[nH]c23)cc1 = > 100 µM

TGI measured on O=C(NCCCNCCCCNCCCNC(=O)C(F)(F)F)C(F)(F)F = > 100 µM

TGI measured on COc1ccc(C(=O)C(C(=O)CCC(=O)Nc2cccc(C(F)(F)F)c2)c2ccccc2)cc1 (centres undefined) = > 100 µM

TGI measured on O=c1cc(-c2ccccc2F)[nH]c2cc3c(cc12)OCO3 = > 58.5 µM

TGI measured on COc1cc(CCCOC2OC(COC3OCC(O)C(O)C3O)C(O)C(O)C2O)cc2cc(-c3ccc4c(c3)OCO4)oc12 (centres undefined) = > 175 µM

TGI measured on O=C(c1ccccc1)[C@H]1Nc2cnccc2C2c3ccccc3CC21 (some centres undefined) = > 38.4 µM

TGI measured on CCCS(=O)(=O)c1nc(NC2CC2)cc(-c2ccc3c(ccn3C3CC(C)(C)NC(C)(C)C3)c2)n1 = 3.22 µM

TGI measured on CCN(CC(=O)O)CC(=O)O = > 100 µM

TGI measured on COc1cc(OC)c(C2c3cc4c(cc3OC(N3CCOCC3)C2C)OCO4)c(OC)c1 (centres undefined) = > 100 µM

TGI measured on O=C1CCn2c([nH]c3cccc4cccc2c43)=N1 = > 100 µM

TGI measured on CCNC(=S)N/N=C/c1ccccn1 = 73.7 µM

###

Test system: SF-295 CNS
Assay: NCI tumour cell line growth inhibition, 48 h
Recorded measurements of TGI, one per entry

Solved cases (5 shown):
Oc1c(Br)cc(CN(Cc2cc(Br)c(O)c(Br)c2)C2CCCCC2)cc1Br = > 100 µM
COC(=O)C1=C(C(=O)OC)C2(C)CCC(=O)C1O2 (stereo not given) = > 10 µM
COc1ccc2c(c1)[C@@]13CCN4CC5=CCO[C@H]6CC(=O)N2[C@H]1[C@H]6[C@H]5C[C@H]43 = > 100 µM
CNc1nc(NC2CCCC2)nc(Sc2ccc(OC)cc2)n1 = > 10 µM
O=C1NN=C(c2c[nH]c3ccccc23)CC1NCc1ccccc1 (stereo not given) = > 100 µM

TGI measured on COc1ccc2c(-c3cc4ccccc4o3)cc(=O)oc2c1 = 79.7 µM

TGI measured on COc1ccc(-c2cc(-c3cc(Cl)ccc3Cl)nc3nc(=S)[nH]c(N)c23)cc1 = 46.5 µM

TGI measured on C=C1CC=CC(C)(C)C1C/C=C(\C)C(O)CBr (stereo not given) = > 100 µM

TGI measured on COC(=O)c1cc(C(=O)OC)cc(-c2ccc3c(c2)-c2nc4c(c(-c5ccc(OC)cc5)c2CC3)CCc2ccc(-c3cc(C(=O)OC)cc(C(=O)OC)c3)cc2-4)c1 = > 100 µM

TGI measured on NC1=NC(=O)C(CC(=O)Nc2ccc([N+](=O)[O-])cc2[N+](=O)[O-])S1 (stereo not given) = > 100 µM

TGI measured on CC(O)CN1C(=O)NC(Cc2ccccc2)C1=O (stereo not given) = > 100 µM

###

Test system: A549 NSCLC
Assay: NCI tumour cell line growth inhibition, 48 h
readout-name: GI50

O=C(Nc1cc(-c2ccccc2)[nH]n1)c1ccc(Cl)cc1 = 30.4 µM

GI50 measured on C=CC(=O)N1CCN(c2ncnc3c(F)c(-c4c(O)cccc4F)c(Cl)cc23)CC1 = 18 µM

GI50 measured on CN1CCN(Cc2ccc(NC(=O)c3ccc(C(C)(C)C)c(C#Cc4cnc5cccnn45)c3)cc2C(F)(F)F)CC1 = 1.91 µM

###

Test system: HT29 colon
Experiment: NCI tumour cell line growth inhibition, 48 h
Recorded measurements of TGI, one per entry

Solved cases (8 shown):
C=C1CC2C(=O)N(c3ccccc3)C(=O)C2CC1n1[nH]c(=O)n(Cc2ccccc2)c1=O (configuration not stated) = > 100 µM
CCCCCCNc1nc(NCCCCCC)c2[nH]c(NCCCCCC)nc2n1 = 18.8 µM
CNc1ccc2c(c1)Cc1ccccc1-2 = > 100 µM
OC(c1ccco1)C(F)(F)c1nc2ccccc2o1 (configuration not stated) = > 100 µM
COc1cc(/C=C\c2ccc(O)cc2)cc(OC)c1OC = > 100 µM
COc1cc(/C=C/C(=O)O)ccc1OS(=O)(=O)O = > 100 µM
COC(=O)C(=O)C(C(=O)C(=O)Nc1cc([N+](=O)[O-])ccc1C#N)c1nc2ccccc2[nH]c1=O (configuration not stated) = > 100 µM
FC(F)=C(c1ccc(-c2ccc(Cl)cc2)cc1)C(F)(F)F = 67.4 µM

TGI measured on COC(=O)[C@H]1C=C[C@H](OC2OC(COC(C)=O)C(OC(C)=O)C(OC(C)=O)C2OC(C)=O)n2c(=O)n(-c3ccccc3)c(=O)n21 (some centres not stated) = 8.58 µM

TGI measured on C[C@@H]1C(=O)CC2(O)[C@@]13C[C@@H](OC(=O)[C@@H]3O)[C@@H](C)[C@@]21COC1=O (some centres not stated) = > 100 µM

TGI measured on COc1ccc(/C=N/Nc2nc3ccccc3c(=O)n2-c2ccccc2)c(OCc2ccccc2)c1 = > 100 µM

TGI measured on COCC(=O)OC1CCn2c1nc1c2C(=O)C(C)=C(NC(C)=O)C1=O (configuration not stated) = 29.5 µM

TGI measured on CC(C)(C)C1(O)Cc2ccccc2C(=O)O1 (configuration not stated) = > 100 µM

TGI measured on NNC(=O)c1cccc2c1Oc1ccccc1S2 = > 100 µM

TGI measured on NC1=NC(=O)C(CC(=O)Nc2ccc([N+](=O)[O-])cc2[N+](=O)[O-])S1 (configuration not stated) = > 100 µM

TGI measured on Cc1noc(C)c1-c1ccc2[nH]c(=O)n3c2c1OC[C@@H]3c1ccccn1 = > 100 µM

TGI measured on NC(=O)NC(=NCc1ccccc1)NCc1ccccc1 = > 100 µM

TGI measured on CCC1C(=O)OCc2c1cc1n(c2=O)CCC12OCCO2 (configuration not stated) = > 100 µM

TGI measured on CCN(Cc1c(F)cccc1F)c1ccc(CO)c(Cl)c1 = 19.5 µM

TGI measured on CS(=O)(=O)Nc1ccc(-c2ccc3c(NC(=O)C4CC4)n[nH]c3c2)cc1 = > 25 µM

TGI measured on CCOP(=O)(OCC)c1cc(-c2ccccc2)ccc1N = > 100 µM

TGI measured on Cc1ccc(-c2nc(C(Cl)Cl)n3nc(-c4ccccc4)cc3n2)cc1 = > 56.2 µM

TGI measured on c1ccc([P+](Cc2csnn2)(c2ccccc2)c2ccccc2)cc1 = > 100 µM

TGI measured on CNC(=O)c1ccc(-c2cnc3ncc(Cc4ccc5ncccc5c4)n3n2)cc1F = > 100 µM

TGI measured on COC(=O)c1sc2ncc3c(c2c1N)CC(C)CC3 (configuration not stated) = > 100 µM

TGI measured on CCOc1cccc2nc3cccc(C(=O)NCCN(C)C)c3nc12 = 7.14 µM

TGI measured on CC(=O)[CH-]C(C)=O.CC(=O)[CH-]C(C)=O.N=CC=N.[Sn+2] = 10.8 µM

###

Recorded measurements of TGI, one per entry
Test system: HCC-2998 colon
Test: NCI tumour cell line growth inhibition, 48 h

O=C(CN=C(CN(c1ccccc1)c1ccccc1)Oc1c(Cl)cc(Cl)cc1Cl)n1cnc2ccccc21 = > 100 µM
Cc1ccc(-n2cc(-c3ccc(Cl)cc3)c3c2N=CN2NC(c4ccco4)=NC32)cc1 (stereo not drawn) = > 100 µM
COc1cc(/C=C/C(=O)O)ccc1OS(=O)(=O)O = > 100 µM

TGI measured on COC(=O)C(=O)C(C(=O)C(=O)Nc1cc([N+](=O)[O-])ccc1C#N)c1nc2ccccc2[nH]c1=O (stereo not drawn) = > 100 µM

TGI measured on CN(C)c1nc(-c2cccs2)n2nc(-c3ccc(Cl)cc3)cc2n1 = > 100 µM

TGI measured on CN1CCN(Cc2ccc(NC(=O)c3ccc(C(C)(C)C)c(C#Cc4cnc5cccnn45)c3)cc2C(F)(F)F)CC1 = 3.38 µM

TGI measured on N#CC(C#N)=Cc1cccc(Oc2ccccc2)c1 = > 62.8 µM

TGI measured on CCCC[C@@H]1CCN2C[C@@H](O)[C@@H](O)[C@H]2[C@@H]1O = > 100 µM
